- Tested System: Grb2 SH2 (UniProt P62993)
- Sequence (P62993 whole entry, looked up): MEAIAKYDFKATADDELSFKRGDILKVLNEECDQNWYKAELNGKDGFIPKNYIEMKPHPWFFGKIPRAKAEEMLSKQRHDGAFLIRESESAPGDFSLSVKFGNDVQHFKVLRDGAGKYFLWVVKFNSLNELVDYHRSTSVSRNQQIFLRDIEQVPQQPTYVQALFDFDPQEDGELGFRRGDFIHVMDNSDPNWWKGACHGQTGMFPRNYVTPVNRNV
- Experiment Notes: SH2 binding enrichment of the phosphorylated peptide, bacterial display (enrichment ratio); higher = better substrate or ligand; peptides without Tyr show the background
Binary call on SH2 binding enrichment: Criterion met from 0.8 upward, Criterion not met beneath that.

INSERT INTO results (polymer_sequence, classification) VALUES
  ('ATHRGYDLDNP [MMUT_Y146_S148L]', 'Criterion not met');

Q. For this sequence, is measured SH2 binding enrichment 0.8 or higher? SSQTVYQRVEG [TFR2_Y23]
A. Criterion met

Q. For this sequence, is measured SH2 binding enrichment 0.8 or higher? MSRNLYSGDFF [DDR2_Y736_YF]
A. Criterion met

Q. For this sequence, is measured SH2 binding enrichment 0.8 or higher? EAVSIYQFHGQ [CBLC_Y402]
A. Criterion not met

----------
Reported phosphorylation enrichment values for the following sequences.
- Tested System: EPHB2 (UniProt P29323)
- Sequence (P29323 whole entry, looked up): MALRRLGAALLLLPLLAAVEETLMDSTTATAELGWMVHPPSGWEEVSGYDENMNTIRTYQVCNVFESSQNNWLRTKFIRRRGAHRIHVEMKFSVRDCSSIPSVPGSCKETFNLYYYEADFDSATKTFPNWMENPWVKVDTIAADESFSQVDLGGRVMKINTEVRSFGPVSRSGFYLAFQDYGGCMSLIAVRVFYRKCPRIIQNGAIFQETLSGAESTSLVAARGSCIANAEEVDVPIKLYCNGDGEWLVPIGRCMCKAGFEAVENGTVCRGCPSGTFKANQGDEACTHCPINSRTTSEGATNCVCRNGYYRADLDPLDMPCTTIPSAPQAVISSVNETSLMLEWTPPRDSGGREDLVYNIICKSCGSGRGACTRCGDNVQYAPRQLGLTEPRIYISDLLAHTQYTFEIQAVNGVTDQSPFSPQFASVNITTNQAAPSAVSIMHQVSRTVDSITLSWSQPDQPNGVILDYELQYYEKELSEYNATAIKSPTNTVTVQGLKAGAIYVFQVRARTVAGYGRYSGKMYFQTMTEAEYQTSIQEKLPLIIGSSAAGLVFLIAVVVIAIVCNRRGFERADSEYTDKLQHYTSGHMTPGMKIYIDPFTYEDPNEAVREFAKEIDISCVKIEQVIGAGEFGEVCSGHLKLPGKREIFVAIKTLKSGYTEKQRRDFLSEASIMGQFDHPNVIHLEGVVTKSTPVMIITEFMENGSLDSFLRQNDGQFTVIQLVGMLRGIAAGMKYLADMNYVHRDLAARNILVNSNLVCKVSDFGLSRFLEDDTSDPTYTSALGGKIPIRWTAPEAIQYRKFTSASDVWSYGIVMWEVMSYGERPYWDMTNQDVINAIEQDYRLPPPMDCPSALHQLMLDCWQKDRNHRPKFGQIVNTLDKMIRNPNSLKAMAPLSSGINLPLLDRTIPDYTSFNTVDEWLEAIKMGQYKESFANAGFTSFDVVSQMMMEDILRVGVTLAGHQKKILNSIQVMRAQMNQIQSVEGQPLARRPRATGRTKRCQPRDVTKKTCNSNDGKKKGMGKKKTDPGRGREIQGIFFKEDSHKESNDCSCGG
- Experiment Notes: phosphorylation enrichment, bacterial display (enrichment ratio); higher = better substrate or ligand; peptides without Tyr show the background

INSERT INTO results (polymer_sequence, tested_system, value_type, result_value) VALUES
  ('IITDYYVDMKF [MPP4_Y567_V562I]', 'EPHB2 (UniProt P29323)', 'phosphorylation enrichment', 2.11),
  ('AVEDQYFCVDC [FHL1_Y207_YF]', 'EPHB2 (UniProt P29323)', 'phosphorylation enrichment', 0.862),
  ('YSIDHYLGKEM [G6PD_Y202_R198S]', 'EPHB2 (UniProt P29323)', 'phosphorylation enrichment', 0.561),
  ('DEENFYQGSME [ASCC1_Y36_D34N]', 'EPHB2 (UniProt P29323)', 'phosphorylation enrichment', 0.604);

// next entry
Q. Please report the measured phosphorylation enrichment for STKPQYQPGEN [SRC_Y530_E527K] tested on EPHB2 (UniProt P29323).
A. 0.36

----------
Reported phosphorylation enrichment values for the following sequences.
- Tested System: Jak2 (UniProt O60674)
- Sequence (O60674 whole entry, looked up): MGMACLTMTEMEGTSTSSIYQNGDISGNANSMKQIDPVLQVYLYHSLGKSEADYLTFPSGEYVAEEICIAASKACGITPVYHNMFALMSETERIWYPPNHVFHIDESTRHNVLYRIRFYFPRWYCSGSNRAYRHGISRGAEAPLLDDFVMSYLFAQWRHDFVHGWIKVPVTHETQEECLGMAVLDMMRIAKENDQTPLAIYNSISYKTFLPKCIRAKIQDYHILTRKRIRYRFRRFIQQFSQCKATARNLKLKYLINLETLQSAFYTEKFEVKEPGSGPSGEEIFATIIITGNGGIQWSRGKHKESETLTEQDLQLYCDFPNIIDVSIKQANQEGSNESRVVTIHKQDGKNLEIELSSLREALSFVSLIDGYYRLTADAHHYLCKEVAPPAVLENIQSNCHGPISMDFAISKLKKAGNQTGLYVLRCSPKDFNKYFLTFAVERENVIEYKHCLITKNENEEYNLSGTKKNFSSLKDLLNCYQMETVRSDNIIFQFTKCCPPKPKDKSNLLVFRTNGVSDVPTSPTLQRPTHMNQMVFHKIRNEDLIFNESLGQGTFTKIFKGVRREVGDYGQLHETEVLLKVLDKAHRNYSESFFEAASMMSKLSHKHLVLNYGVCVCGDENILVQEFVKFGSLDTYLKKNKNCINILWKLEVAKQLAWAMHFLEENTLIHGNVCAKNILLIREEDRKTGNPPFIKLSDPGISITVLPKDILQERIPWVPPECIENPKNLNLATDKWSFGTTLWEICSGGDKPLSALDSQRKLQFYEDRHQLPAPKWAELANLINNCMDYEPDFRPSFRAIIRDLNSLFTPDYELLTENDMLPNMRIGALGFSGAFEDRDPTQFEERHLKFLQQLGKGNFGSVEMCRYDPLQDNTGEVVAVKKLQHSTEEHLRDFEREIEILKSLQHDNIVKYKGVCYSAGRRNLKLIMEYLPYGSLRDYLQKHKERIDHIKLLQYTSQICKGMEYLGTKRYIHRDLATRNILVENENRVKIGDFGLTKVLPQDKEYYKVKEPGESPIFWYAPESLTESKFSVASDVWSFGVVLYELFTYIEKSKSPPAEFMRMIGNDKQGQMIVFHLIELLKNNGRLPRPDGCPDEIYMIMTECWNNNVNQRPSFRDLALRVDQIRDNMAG
- Experiment Notes: phosphorylation enrichment, bacterial display (enrichment ratio); higher = better substrate or ligand; peptides without Tyr show the background
In your answer, state the number alone without any accompanying words.

// solved cases for phosphorylation enrichment follow
INSERT INTO measurements (polymer_sequence, value_type, result_value) VALUES
  ('RRSQSYNPTSG [PLEKHA2_Y185_I186N]', 'phosphorylation enrichment', 0.809),
  ('CLLHCYFSQIH [MCM3AP_Y873_R878H]', 'phosphorylation enrichment', 1.26),
  ('AKRKGYDMRVD [NEB_Y2770]', 'phosphorylation enrichment', 0.431),
  ('AEMTGYVMTRW [MAPK13_Y182_V184M]', 'phosphorylation enrichment', 1.11),
  ('VKANTYENYWP [GATM_Y100_K102N]', 'phosphorylation enrichment', 0.994),
  ('VEYAKYGSLQG [RET_Y809_R813Q]', 'phosphorylation enrichment', 0.58),
  ('RQRTAYFSLNT [CDH1_Y68_D72N]', 'phosphorylation enrichment', 1.34),
  ('FARNCYVAGQF [G6PD_Y107_S106C_YF]', 'phosphorylation enrichment', 0.743),
  ('DFCDLYGGEKF [PTPN11_Y66_Y63C_YF]', 'phosphorylation enrichment', 0.908),
  ('LEKISYVFMKR [SSX7_Y48_YF]', 'phosphorylation enrichment', 1.72);

Q. Assign phosphorylation enrichment to the following record: RLLRGYRQDAY [HLA-A_Y137_F133L]
A. 0.802

Q. Assign phosphorylation enrichment to the following record: CRAVKYLQMVG [AVPR2_Y117]
A. 0.619

----------
- Tested System: Fes (UniProt P07332)
- Sequence (P07332 whole entry, looked up): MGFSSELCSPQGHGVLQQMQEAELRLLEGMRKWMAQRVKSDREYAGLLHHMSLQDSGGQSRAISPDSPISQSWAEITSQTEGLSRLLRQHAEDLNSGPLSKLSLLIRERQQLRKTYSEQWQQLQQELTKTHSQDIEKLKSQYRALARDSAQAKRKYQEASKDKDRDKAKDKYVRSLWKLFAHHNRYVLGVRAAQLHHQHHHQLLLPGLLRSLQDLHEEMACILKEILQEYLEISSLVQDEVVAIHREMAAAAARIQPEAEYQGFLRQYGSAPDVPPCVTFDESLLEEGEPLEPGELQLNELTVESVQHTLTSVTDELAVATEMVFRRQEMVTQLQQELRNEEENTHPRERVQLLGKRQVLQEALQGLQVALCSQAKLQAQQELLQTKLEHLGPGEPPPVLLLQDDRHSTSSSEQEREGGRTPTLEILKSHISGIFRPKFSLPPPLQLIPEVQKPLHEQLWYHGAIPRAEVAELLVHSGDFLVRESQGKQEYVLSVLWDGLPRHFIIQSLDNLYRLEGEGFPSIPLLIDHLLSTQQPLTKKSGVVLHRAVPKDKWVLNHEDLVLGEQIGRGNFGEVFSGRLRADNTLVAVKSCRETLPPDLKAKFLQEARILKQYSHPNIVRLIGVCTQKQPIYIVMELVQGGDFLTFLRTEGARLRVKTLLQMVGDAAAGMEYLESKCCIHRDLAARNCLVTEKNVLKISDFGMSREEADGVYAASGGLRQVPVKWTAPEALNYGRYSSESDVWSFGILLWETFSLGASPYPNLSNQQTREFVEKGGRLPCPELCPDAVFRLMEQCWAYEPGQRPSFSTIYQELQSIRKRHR
- Experiment Notes: phosphorylation enrichment, bacterial display (enrichment ratio); higher = better substrate or ligand; peptides without Tyr show the background
Value Type: phosphorylation enrichment
In your answer, state the number alone without any accompanying words.

INSERT INTO measurements (polymer_sequence, result_value) VALUES
  ('TPIFPYLLPKS [PLD2_Y580_T577I_YF]', 0.685),
  ('TFEYRYLEDRD [CNOT3_Y746]', 1.35),
  ('EYGFRYELVQY [UGGT2_Y1289]', 1.65),
  ('VSTKVYKRFPS [BEST1_Y148_A146K]', 0.605),
  ('DEDFLYREELA [POR_Y575_YF]', 1.21),
  ('DLDPNYVLSSR [CKM_Y125]', 1.01),
  ('AKRKGYDMRVD [NEB_Y2770]', 0.477),
  ('YLTSSYINIST [IL23R_Y178]', 1.18),
  ('SVVVPYEPPEF [TP53_Y220_V225F]', 1.05),
  ('LEKISYVFMKR [SSX7_Y48_YF]', 2.51);

Q. Assign phosphorylation enrichment to the following record: NTGVYYDLYGG [PTPN11_Y63_D61V]
A. 1.18

Q. Assign phosphorylation enrichment to the following record: HTKKNYGNSSV [HDX_Y197_A193T]
A. 0.656

Q. Assign phosphorylation enrichment to the following record: GSERDYTFEEL [EIF2S2_Y174_YF]
A. 1.27

Q. Assign phosphorylation enrichment to the following record: DLLMQHPKAQG [FAM83C_Y600_Y600H]
A. 0.693

Q. Assign phosphorylation enrichment to the following record: KRELRYMHSRV [ABCD1_Y281_G277R]
A. 0.578

Q. Assign phosphorylation enrichment to the following record: IALSKYGRVKR [FGF6_Y186]
A. 0.564

Q. Assign phosphorylation enrichment to the following record: PLRPDYQEPSR [DDR2_Y481]
A. 1.66

Q. Assign phosphorylation enrichment to the following record: DTKPAYQNLRQ [BOD1_Y82]
A. 0.541

Q. Assign phosphorylation enrichment to the following record: PLQDVYKIGGI [EEF1A2_Y254]
A. 0.981

Q. Assign phosphorylation enrichment to the following record: RELGEYGLQAF [ALDH2_Y497_YF]
A. 1.66

Q. Assign phosphorylation enrichment to the following record: WFPANYVKLLS [ITSN1_Y1132]
A. 0.841

Q. Assign phosphorylation enrichment to the following record: IGLHAYGDQFR [IDH1_Y135_R132L_YF]
A. 0.799

Q. Assign phosphorylation enrichment to the following record: AEFGLYAAMVR [VSX2_Y222_G223A_YF]
A. 1.24

Q. Assign phosphorylation enrichment to the following record: IVFTSYFLTIL [TAS2R16_Y239]
A. 1.89

Q. Assign phosphorylation enrichment to the following record: RGGDSYGGPPR [RBMX_Y190_R187G]
A. 0.848

Q. Assign phosphorylation enrichment to the following record: RDMMDYMLQGV [CYP21A2_Y259]
A. 1.19

Q. Assign phosphorylation enrichment to the following record: KSAAIYNPVIY [RHO_Y301]
A. 0.72

Q. Assign phosphorylation enrichment to the following record: FGCTFYNQAIM [MCCC2_Y196_R193C]
A. 1.54

----------
- Tested System: MERTK (UniProt Q12866)
- Sequence (Q12866 whole entry, looked up): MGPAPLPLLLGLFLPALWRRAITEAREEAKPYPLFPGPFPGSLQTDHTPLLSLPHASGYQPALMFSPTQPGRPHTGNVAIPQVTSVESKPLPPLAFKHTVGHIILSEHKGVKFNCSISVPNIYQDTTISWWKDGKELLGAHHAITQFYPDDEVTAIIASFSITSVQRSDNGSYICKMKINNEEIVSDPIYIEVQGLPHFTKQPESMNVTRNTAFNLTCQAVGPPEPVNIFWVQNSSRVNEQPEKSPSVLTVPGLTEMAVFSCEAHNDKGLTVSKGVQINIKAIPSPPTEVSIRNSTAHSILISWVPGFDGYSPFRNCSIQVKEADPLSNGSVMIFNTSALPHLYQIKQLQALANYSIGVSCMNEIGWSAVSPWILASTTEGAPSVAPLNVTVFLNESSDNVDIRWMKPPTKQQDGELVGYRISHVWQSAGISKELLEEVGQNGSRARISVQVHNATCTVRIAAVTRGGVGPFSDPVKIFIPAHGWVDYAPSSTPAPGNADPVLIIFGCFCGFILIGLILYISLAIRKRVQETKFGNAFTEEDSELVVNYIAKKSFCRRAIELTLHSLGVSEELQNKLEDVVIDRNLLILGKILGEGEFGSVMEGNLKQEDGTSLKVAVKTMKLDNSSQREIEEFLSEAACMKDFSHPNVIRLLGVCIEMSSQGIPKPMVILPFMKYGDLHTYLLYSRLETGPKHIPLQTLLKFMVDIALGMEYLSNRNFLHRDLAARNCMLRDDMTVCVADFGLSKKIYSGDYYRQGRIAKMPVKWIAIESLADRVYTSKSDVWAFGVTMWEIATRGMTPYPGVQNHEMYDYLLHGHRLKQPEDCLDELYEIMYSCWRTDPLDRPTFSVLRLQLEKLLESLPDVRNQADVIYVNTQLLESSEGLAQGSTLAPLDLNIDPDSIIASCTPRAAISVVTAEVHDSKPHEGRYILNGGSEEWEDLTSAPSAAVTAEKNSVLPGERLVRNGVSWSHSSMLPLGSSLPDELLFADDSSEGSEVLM
- Experiment Notes: phosphorylation enrichment, bacterial display (enrichment ratio); higher = better substrate or ligand; peptides without Tyr show the background
Reported phosphorylation enrichment values for the following sequences.

// solved cases for phosphorylation enrichment follow
INSERT INTO measurements (polymer_sequence, value_type, result_value) VALUES
  ('PGPQSYPIVTG [PAX5_Y299]', 'phosphorylation enrichment', 0.586),
  ('HFEDGYPGGSD [CTNND1_Y221_YF]', 'phosphorylation enrichment', 0.598),
  ('RTTIHYNFMCN [TP53_Y234_C229R_YF]', 'phosphorylation enrichment', 0.609);

Q. Assign phosphorylation enrichment to the following record: REGAKYVSHGA [ASS1_Y113]
A. 0.403

----------
- Tested System: FGFR3 (UniProt P22607)
- Sequence (P22607 whole entry, looked up): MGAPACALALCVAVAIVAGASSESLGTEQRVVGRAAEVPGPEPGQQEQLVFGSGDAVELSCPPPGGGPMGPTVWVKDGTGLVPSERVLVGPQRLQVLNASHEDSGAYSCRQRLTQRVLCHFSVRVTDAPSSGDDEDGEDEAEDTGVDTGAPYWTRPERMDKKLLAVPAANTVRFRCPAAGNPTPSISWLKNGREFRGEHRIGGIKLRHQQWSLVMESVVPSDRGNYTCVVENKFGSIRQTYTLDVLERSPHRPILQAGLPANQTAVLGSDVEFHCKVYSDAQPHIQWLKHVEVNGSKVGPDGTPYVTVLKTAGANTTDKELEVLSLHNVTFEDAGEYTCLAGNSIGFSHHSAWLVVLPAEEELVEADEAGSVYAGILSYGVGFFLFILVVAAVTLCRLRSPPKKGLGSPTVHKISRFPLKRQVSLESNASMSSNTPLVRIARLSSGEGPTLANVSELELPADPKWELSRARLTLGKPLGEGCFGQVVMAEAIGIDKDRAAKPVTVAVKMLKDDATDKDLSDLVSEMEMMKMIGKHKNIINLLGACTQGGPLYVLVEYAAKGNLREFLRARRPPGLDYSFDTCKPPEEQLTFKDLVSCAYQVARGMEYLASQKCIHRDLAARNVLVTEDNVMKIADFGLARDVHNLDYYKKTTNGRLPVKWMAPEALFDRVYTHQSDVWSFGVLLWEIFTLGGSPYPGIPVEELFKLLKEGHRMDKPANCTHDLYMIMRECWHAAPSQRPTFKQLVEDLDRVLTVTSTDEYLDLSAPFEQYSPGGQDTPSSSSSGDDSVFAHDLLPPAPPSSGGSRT
- Experiment Notes: phosphorylation enrichment, bacterial display (enrichment ratio); higher = better substrate or ligand; peptides without Tyr show the background
Value Type: phosphorylation enrichment
In your answer, state the number alone without any accompanying words.

INSERT INTO results (polymer_sequence, result_value) VALUES
  ('GLDGSYLLTDS [SH2D1A_Y29_R32T]', 0.604);

Q. Assign phosphorylation enrichment to the following record: EAVSIYQFHGQ [CBLC_Y402]
A. 0.594

Q. Assign phosphorylation enrichment to the following record: CTTIHHNYMCN [TP53_Y234_Y234H]
A. 0.586

----------
Reported SH2 binding enrichment values for the following sequences.
- Tested System: SHP2-C SH2
- Experiment Notes: SH2 binding enrichment of the phosphorylated peptide, bacterial display (enrichment ratio); higher = better substrate or ligand; peptides without Tyr show the background
In your answer, state the number alone without any accompanying words.

// solved cases for SH2 binding enrichment follow
INSERT INTO results (polymer_sequence, tested_system, result_value) VALUES
  ('YGSSSYGGAGG [RPA2_Y14]', 'SHP2-C SH2', 0.793),
  ('HEEDNYIELIP [NWD2_Y566]', 'SHP2-C SH2', 0.793),
  ('GFAGKYIAMVM [CYP19A1_Y441_C437Y_YF]', 'SHP2-C SH2', 0.81),
  ('QYPDVYAREEV [CRX_Y67]', 'SHP2-C SH2', 0.812),
  ('EILDVYIFLGP [GAA_Y340_G335E]', 'SHP2-C SH2', 0.793);

Q. Assign SH2 binding enrichment to the following record: TVQVAYYTVMM [SPATA17_Y83_M86V]
A. 0.812

Q. Assign SH2 binding enrichment to the following record: RGGDSYGGPPR [RBMX_Y190_R187G]
A. 0.798

These measurements were taken from the supplement of paper PMC10065799.
